Target: Cytochrome P450 1A2 (Homo sapiens)
Experiment: Cytochrome P450 Family 1 Subfamily A Member 2 (CYP1A2) small molecule antagonists: luciferase reporter qHTS assay (AID 1671199); note: nearly all actives have a fitted effect of over 50% in size
Settings: P450-Glo CYP1A2 enzyme, luciferin luminescence, 1 h; series mostly up to 115 µM
Records with an inconclusive call do not appear. Calls of active or inactive are those of the source. Calls come from the whole dose curve; as a rule, active = well fitted inhibition curve with a large enough effect in the repeat runs; inconclusive = weak or mixed curves; inactive = no such curve, though single readings can be large or run the other way.
Outcome codes: active, inactive

| compound | label |
| --- | --- |
| C=CC(=O)O | inactive |
| CC(=O)NCCO | inactive |
| CCCCCCC(O)CCCCCCCCCCC(=O)OC (stereo not drawn) | inactive |
| CCCCCCCC(=O)OCCCCCC | inactive |
| CC1CCCC(=O)C1=O (stereo not drawn) | inactive |
| CCCCCCCCCCCCCCCC(=O)OCC | inactive |
| O=S(=O)(O)CO | active |
| Cc1ccc2c(c1[N+](=O)[O-])C(=O)c1ccccc1C2=O | active |

----------
Assay: qHTS assay to identify small molecule antagonists of the estrogen related receptor signaling pathway with the pleiotropic PPARgamma coactivator (PGC) from Tox21 10K library (AID 1224841); note: actives are mostly falling curves and most rising ones were filed inactive; nearly all actives have a fitted effect of over 50% in size
Conditions: PGC/ERR reporter cell line, ONE-Glo luciferase, 18 h; series mostly up to 92.4 µM
Inconclusive results are not listed. Active and inactive are the calls of the source. No rule for the calls is given here.
Outcome codes: active, inactive

| molecule | label |
| --- | --- |
| C=Cc1ccc(OC(C)=O)cc1 | inactive |
| CC[C@@H](CO)NCCN[C@@H](CC)CO | inactive |
| CCO[Si](C)(CCCOCC1CO1)OCC (centres undefined) | inactive |
| CC(=O)N[C@@H](Cc1ccc(O)cc1)C(=O)O | inactive |
| O=C(Oc1ccccc1)c1ccc2ccccc2c1O | inactive |
| CCCCC(CC)COS(=O)(=O)O (centres undefined) | inactive |
| O=[N+]([O-])C1(Br)COCOC1 | inactive |
| O=C1CC[C@@H](C(=O)O)N1 | inactive |
| CCCCCCCC(=O)Oc1c(Br)cc(C#N)cc1Br | active |

----------
Target: Cytochrome P450 2D6 (Homo sapiens) (UniProt P10635)
Sequence (P10635 whole entry, looked up): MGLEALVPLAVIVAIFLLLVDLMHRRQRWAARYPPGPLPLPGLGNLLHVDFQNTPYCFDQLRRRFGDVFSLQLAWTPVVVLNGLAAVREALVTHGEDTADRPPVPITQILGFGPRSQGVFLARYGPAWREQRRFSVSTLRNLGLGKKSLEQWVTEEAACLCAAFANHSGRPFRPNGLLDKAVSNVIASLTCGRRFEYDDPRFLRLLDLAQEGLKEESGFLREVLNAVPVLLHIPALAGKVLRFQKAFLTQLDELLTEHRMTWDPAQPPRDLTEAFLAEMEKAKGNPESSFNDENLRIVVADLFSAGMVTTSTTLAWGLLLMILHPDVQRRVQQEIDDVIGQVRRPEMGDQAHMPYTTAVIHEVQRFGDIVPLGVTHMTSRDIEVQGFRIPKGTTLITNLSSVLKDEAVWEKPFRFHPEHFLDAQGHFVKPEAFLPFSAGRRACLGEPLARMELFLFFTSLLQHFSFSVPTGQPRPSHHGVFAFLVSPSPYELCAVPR
Assay: Cytochrome P450 Family 2 Subfamily D Member 6 (CYP2D6) small molecule antagonists: luciferase reporter qHTS assay (AID 1671196); note: nearly all actives have a fitted effect of over 50% in size; note: potency is the fitted concentration of half-maximal effect
Details: P450-Glo CYP2D6 enzyme assay, luciferin luminescence, 1 h; series mostly up to 115 µM
Inconclusive results are not listed. The source made the active and inactive calls. Calls follow the shape of the dose curve; as a rule, active = well fitted inhibition curve with a large enough effect in the repeat runs; inconclusive = weak or mixed curves; inactive = no such curve, though single readings can be large or run the other way.

| compound | Potency |
| --- | --- |
| O=C(NC(Cc1cc(=O)[nH]c2ccccc12)C(=O)O)c1ccc(Cl)cc1 (stereo not given) | inactive |
| O=C(O)c1ccc(O)cc1O | inactive |
| Nc1ccc(S(=O)(=O)NCc2ccccc2)cc1 | inactive |
| C=CC(=O)NC(C)C | inactive |
| COc1cc(NCc2ccc3nc(N)nc(N)c3c2C)cc(OC)c1OC | 13.8 µM (active) |
| CC[C@H]1OC(=O)[C@H](C)[C@@H](O[C@H]2C[C@@](C)(OC)[C@@H](O)[C@H](C)O2)[C@H](C)[C@@H](O[C@@H]2O[C@H](C)C[C@H](N(C)C)[C@H]2O)[C@](C)(O)C[C@@H](C)/C(=N\OCOCCOC)[C@H](C)[C@@H](O)[C@]1(C)O | inactive |
| COc1ccc(CCN(C)CCCN2CCc3cc(OC)c(OC)cc3CC2=O)cc1OC | inactive |
| C1CCCCC1 | inactive |
| FC(F)(F)C(F)(F)C(F)(F)C(F)(F)CCI | inactive |
| CC(C)C(O)C(C)(C)CO (stereo not given) | 32.7 µM (active) |
| O=C(c1ccccc1)C1CCC1 | inactive |
| CCN(CC)CCNC(=O)c1cc(Cl)c(N)cc1OC | 7.76 µM (active) |
| Cc1cc([N+](=O)[O-])ccc1N | 31.3 µM (active) |
| CC[C@H]1OC(=O)[C@H](C)[C@@H](O[C@H]2C[C@@](C)(OC)[C@@H](O)[C@H](C)O2)[C@H](C)[C@@H](O[C@@H]2O[C@H](C)C[C@H](N(C)C)[C@H]2O)[C@](C)(O)C[C@@H](C)C(=O)[C@H](C)[C@@H](O)[C@]1(C)O | inactive |
| CCCc1nc2c(C)cc(-c3nc4ccccc4n3C)cc2n1Cc1ccc(-c2ccccc2C(=O)O)cc1 | inactive |
| Cc1ccc(S(=O)(=O)NC(=O)NC2CCCCC2)cc1 | inactive |
| O=C1[C@@H]2[C@H]3CC[C@H](C3)[C@@H]2C(=O)N1CCCCN1CCN(c2ncccn2)CC1 | 12.3 µM (active) |
| CCC1CCC(CCC(=O)O)C1 (stereo not given) | inactive |
| CC(C)(O)c1coc(S(=O)(=O)NC(=O)Nc2c3c(cc4c2CCC4)CCC3)c1 | inactive |
| CC[C@H]1OC(=O)[C@H](C)[C@@H](O[C@H]2C[C@@](C)(OC)[C@@H](O)[C@H](C)O2)[C@H](C)[C@@H](O[C@@H]2O[C@H](C)C[C@H](N(C)C)[C@H]2O)[C@](C)(O)C[C@@H](C)CN(C)[C@H](C)[C@@H](O)[C@]1(C)O | inactive |
| Cc1ccc2nc(N)[nH]c(=O)c2c1Sc1ccncc1 | 15.5 µM (active) |
| CC(=O)OC(C)C[N+](C)(C)C (stereo not given) | inactive |
| O=[N+]([O-])C1(Br)COCOC1 | inactive |
| CSCC[C@H](NC(=O)[C@H](Cc1c[nH]c2ccccc12)NC(=O)CCNC(=O)OC(C)(C)C)C(=O)N[C@@H](CC(=O)O)C(=O)N[C@@H](Cc1ccccc1)C(N)=O | inactive |
| COc1ccc(-c2cc(C(F)F)nn2-c2ccc(S(N)(=O)=O)cc2)cc1F | 8.71 µM (active) |
| CSSc1ccoc1C | inactive |
| BrC(Br)C(Br)Br | inactive |
| CCN(CC)CCOc1ccccc1C(=O)CCc1ccccc1 | 0.692 µM (active) |
| O=C(NS(=O)(=O)/C=C/c1ccccc1)c1ccc(F)cc1Cl | inactive |
| O=C(O)CCC(=O)OC[C@@H](NC(=O)C(Cl)Cl)[C@H](O)c1ccc([N+](=O)[O-])cc1 | inactive |
| CCc1ccc(C)cc1 | inactive |
| O=C(O)CO | inactive |
| CCN(CC)c1ccc(C(=C2C=CC(=[N+](CC)CC)C=C2)c2ccc(S(=O)(=O)O)cc2S(=O)(=O)[O-])cc1 | 20 µM (active) |
| CC(C)OC(=O)c1ccccc1C(=O)OC(C)C | inactive |
| O=C(CCS)OCC(COC(=O)CCS)(COC(=O)CCS)COC(=O)CCS | inactive |
| CC1CCCC(=O)C1=O (stereo not given) | inactive |
| C=CC(=O)O | inactive |
| CN1CCCN(C(c2ccccc2)c2ccc(Cl)cc2)CC1 (stereo not given) | 0.49 µM (active) |
| CCCCCCC(CO)CCCC (stereo not given) | inactive |
| C=Cc1ccc(OC(C)=O)cc1 | inactive |
| O=S(=O)(Cl)c1c(Cl)cccc1Cl | 25.1 µM (active) |
| Cc1ccc(N(CCO)CCO)cc1 | inactive |
| CCOC(=O)c1c(N)sc2c1CCN(Cc1ccccc1)C2 | 0.0219 µM (active) |
| CCCCCCCC/C=C/C(=O)O | inactive |
| CCCCCCCCCCCCCCCCCC(=O)OCC(CC)CCCC (stereo not given) | inactive |

----------
Assay: qHTS assay for small molecules that induce genotoxicity in human embryonic kidney cells expressing luciferase-tagged ATAD5 - cell viability (AID 651634); note: nearly all actives have a fitted effect of over 25% in size; note: potency is the fitted concentration of half-maximal effect
Conditions: HEK293T ATAD5-luc cells viability, CellTiter-Fluor, 15.5 h; series mostly up to 83.3 µM
Records with an inconclusive call do not appear. Calls of active or inactive are those of the source. Calls follow the shape of the full dose curve.
endpoint: Potency

| molecule | assayValue |
| --- | --- |
| COc1cc(S(=O)(=O)Nc2ccccc2)c(OC)cc1N | inactive |
| Cc1ccc(Cl)cc1N | inactive |
| O=C1CC[C@@H](C(=O)O)N1 | inactive |
| O=C(c1ccccc1)c1ccc(O)cc1 | inactive |
| CCOC(=O)C(C)O (stereo unspecified) | inactive |
| CCCCCCC(CO)CCCC (stereo unspecified) | inactive |
| CCCCCCCCCCCC(=O)OCC(O)CO (stereo unspecified) | inactive |
| O=C(O)CCC(=O)c1ccc(-c2ccccc2)cc1 | inactive |
| Cc1ccc(N(CCO)CCO)cc1 | inactive |
| CN1CCCN(C(c2ccccc2)c2ccc(Cl)cc2)CC1 (stereo unspecified) | inactive |
| CC(=O)OCCC(C)CC(C)(C)C (stereo unspecified) | inactive |
| CC(=O)C(C)=O | inactive |
| C1=CCC2CC=CC2C1 (stereo unspecified) | inactive |
| CC(=O)OCCC1CCCCC1 | inactive |
| O=P(O)(O)Oc1ccccc1 | inactive |
| CCCCOC(=O)CCCCC(=O)OCCCC | inactive |
| CCOC(=O)c1ccc(NC(=O)CN2CCCCC2)cc1 | inactive |
| O=C(Oc1ccccc1)c1ccc2ccccc2c1O | inactive |
| CN(C)CC/C=C1\c2ccccc2Sc2ccc(Cl)cc21 | inactive |
| Nc1ccc(NC(=O)c2ccc(N)cc2)cc1 | inactive |
| O=C(O)c1ccc(O)cc1O | inactive |
| FC(F)(F)C(F)(F)C(F)(F)C(F)(F)CCI | inactive |
| CC(CO)(CO)C(=O)O | inactive |
| NC(=O)CCCCC(N)=O | inactive |
| Nc1c(Cl)cc(Cl)cc1[N+](=O)[O-] | inactive |
| CCN(CC)C(=O)/C(C#N)=C/c1cc(O)c(O)c([N+](=O)[O-])c1 | 26.6 µM (active) |
| c1ccc(CCCc2ccncc2)cc1 | inactive |
| Cc1cccc2sc(N)nc12 | inactive |
| CCc1ccc(C)cc1 | inactive |
| CC(C(=O)O)c1ccc(C(=O)c2cccs2)cc1 (stereo unspecified) | inactive |
| CC(C)(O)CCc1ccccc1 | inactive |
